# Format: in vivo, human
# Condition context: human, plasma, oral, 6 mg
Property: Cmax
Give the figure together with its unit, number first.

The compound CC[C@@H]1CN(C(=O)NCC(F)(F)F)C[C@@H]1c1cnc2cnc3[nH]ccc3n12 showed Cmax equal to 40.2 ng/mL

Value source: paper PMC7027977
